TGT: IP6K3 (Homo sapiens (Human), UniProt Q96PC2)
Sequence (Q96PC2 whole entry): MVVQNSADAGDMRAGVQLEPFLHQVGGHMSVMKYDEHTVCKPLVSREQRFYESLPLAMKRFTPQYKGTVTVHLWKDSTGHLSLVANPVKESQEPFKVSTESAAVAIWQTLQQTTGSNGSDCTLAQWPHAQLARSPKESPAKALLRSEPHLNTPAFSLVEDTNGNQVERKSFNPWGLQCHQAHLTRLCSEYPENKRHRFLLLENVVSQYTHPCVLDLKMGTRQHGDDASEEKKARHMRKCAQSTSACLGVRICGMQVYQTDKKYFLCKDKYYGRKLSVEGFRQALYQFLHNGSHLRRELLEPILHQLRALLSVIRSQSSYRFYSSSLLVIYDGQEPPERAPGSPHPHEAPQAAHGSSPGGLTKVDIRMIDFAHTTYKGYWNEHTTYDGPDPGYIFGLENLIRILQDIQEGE
EXPERIMENT_SUMMARY: Enzyme-coupled assay of IP6K3 activity (Dipp1-coupled, malachite green Pi release)
Assay type: biochemical
MEASUREMENT_CONTEXT: enzyme-coupled assay; Table 4
Listed here: items and their measured IC50.

Task: Dear colleague, I am looking for the recorded IC50 of the following molecule: Cc1cc(C)cc(-c2onc3ccc(-c4nnn[nH]4)cc23)c1
Output: 100 to 1000 nM

Further cases:
Task: So what does the record say about IC50 for CC(C)(C)OC(=O)N1CCC(Oc2cccc(-c3onc4ccc(-c5nnn[nH]5)cc34)c2)CC1 ?
Output: 10 to 100 nM

Task: // repeat for O=C(Nc1ccc(-c2onc3ccc(-c4nnn[nH]4)cc23)cc1)C1CC1 and report
Output: < 10 nM

Task: Cool, now FC(F)(F)Oc1ccc(-c2onc3ccc(-c4nnn[nH]4)cc23)cc1
Output: 100 to 1000 nM

Task: Moving on to CN(C)CCOc1ccc(-c2onc3ccc(-c4nnn[nH]4)cc23)cc1
Output: 100 to 1000 nM

Task: Follow-up item: CC(C)C(=O)Nc1cccc(-c2onc3ccc(-c4nnn[nH]4)cc23)c1
Output: 100 to 1000 nM
